subject of test: IGF-1R on SW480 cells (UniProt P08069 31-1367, limits assumed)
Sequence (P08069 31-1367 limits assumed): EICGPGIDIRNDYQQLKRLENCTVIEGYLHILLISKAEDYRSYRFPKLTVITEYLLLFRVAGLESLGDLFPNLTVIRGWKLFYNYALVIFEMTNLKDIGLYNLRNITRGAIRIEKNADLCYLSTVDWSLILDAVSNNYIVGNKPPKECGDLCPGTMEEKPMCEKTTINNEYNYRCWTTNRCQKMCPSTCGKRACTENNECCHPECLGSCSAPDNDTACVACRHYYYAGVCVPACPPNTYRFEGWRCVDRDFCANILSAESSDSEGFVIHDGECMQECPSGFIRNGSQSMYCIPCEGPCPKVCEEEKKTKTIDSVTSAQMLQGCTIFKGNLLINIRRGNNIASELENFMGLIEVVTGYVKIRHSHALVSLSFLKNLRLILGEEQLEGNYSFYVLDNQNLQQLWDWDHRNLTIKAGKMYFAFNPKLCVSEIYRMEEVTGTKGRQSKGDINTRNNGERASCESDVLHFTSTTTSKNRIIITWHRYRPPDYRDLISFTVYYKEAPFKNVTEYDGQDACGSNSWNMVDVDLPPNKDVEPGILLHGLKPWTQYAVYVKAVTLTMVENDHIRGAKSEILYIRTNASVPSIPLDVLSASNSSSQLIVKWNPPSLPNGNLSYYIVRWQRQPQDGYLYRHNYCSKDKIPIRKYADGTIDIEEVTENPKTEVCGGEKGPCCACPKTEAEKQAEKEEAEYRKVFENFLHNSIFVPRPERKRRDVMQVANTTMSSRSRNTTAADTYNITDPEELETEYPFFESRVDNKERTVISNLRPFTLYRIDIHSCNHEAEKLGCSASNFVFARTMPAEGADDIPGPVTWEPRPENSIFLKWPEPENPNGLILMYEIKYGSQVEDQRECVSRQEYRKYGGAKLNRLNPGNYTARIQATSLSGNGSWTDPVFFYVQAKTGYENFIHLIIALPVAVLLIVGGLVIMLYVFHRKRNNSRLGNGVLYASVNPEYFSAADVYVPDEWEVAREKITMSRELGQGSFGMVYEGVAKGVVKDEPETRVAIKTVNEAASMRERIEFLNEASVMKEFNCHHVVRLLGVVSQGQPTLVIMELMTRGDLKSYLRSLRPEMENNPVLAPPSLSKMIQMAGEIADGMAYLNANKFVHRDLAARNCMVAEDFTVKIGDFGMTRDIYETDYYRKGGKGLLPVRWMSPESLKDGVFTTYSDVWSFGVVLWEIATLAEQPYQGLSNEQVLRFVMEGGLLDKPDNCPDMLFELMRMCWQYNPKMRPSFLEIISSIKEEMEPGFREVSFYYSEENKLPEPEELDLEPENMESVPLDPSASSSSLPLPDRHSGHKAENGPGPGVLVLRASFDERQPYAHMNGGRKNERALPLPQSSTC
method description: cell-based or functional assay
// IC50 in SW480 (M) in presence of IGF-1 lookup, one value per entry
Give a bare numeral; the unit M is implied.

INSERT INTO measurements (binder, unit_abbreviation, endpoint_result) VALUES
  ('SFYSCLESLVAGPAEKSRGQWEGCRK [F259]', 'M', '2e-06'),
  ('EGRVDDAFYEWFERQLGE [F213]', 'M', '2e-06'),
  ('EFGRGYGGDGGGYWSGYEWLAE [F207]', 'M', '2e-06');

Now for the binder whose IC50 in SW480 (M) in presence of IGF-1 we want.
Looking up SFYSCLESLVTGPAEKSRGQWEGCRK [F292] , I found its IC50 in SW480 (M) in presence of IGF-1 recorded as 1e-07
